- assay_summary: in vivo
- run_conditions: male, Wistar-Hannover, rat, plasma, po, 12 mg/kg
measurement_label: Tmax

For reference, reported Tmax for `O=C(c1ccc(OCCN2CCCCC2)cc1)c1c(-c2ccc(O)cc2)sc2cc(O)ccc12` stands at ~4 h

----------
- assay_summary: in vivo
- run_conditions: male, Wistar-Hannover, rat, plasma, po, 12 mg/kg
measurement_label: bioavailability (%)
Your answer should be a plain number; it is taken to be in %.

// sample `O=C(c1ccc(OCCN2CCCCC2)cc1)c1c(-c2ccc(O)cc2)sc2cc(O)ccc12` , its bioavailability was 3.6

Measured values drawn from patent US20070254859A1 for this set.
